FYI, the data here is from patent US20250333501A1.

Target: T1, CLDN6 endogenously expressed by human cancer cell lines (ARK2, OVCA429) (human, UniProt P56747 1-220)
T1 construct: Untagged endogenous protein; also called Endogenous CLDN6+
T1 sequence: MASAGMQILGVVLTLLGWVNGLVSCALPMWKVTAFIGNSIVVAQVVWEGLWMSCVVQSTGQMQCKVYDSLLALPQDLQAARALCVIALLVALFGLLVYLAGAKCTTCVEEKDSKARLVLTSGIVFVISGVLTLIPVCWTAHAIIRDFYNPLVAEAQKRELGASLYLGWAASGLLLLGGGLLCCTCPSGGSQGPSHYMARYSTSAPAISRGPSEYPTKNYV
Test: FACS, 1.5 µg Ab, OVCA429 cells
Binarize FACS fluorescence at 2000; below is Condition met, at or above is Condition not met.

For orientation, consider the following solved cases.
binder	answer.label
AB18-4 (antibody, V domains shown, also called Humanized AB 18-4) VH: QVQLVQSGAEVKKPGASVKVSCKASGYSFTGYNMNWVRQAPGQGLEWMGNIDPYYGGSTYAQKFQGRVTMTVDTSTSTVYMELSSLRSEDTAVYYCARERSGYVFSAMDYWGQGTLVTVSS VL: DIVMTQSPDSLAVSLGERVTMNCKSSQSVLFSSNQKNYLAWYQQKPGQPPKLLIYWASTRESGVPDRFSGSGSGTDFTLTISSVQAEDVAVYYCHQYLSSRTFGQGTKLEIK	Condition not met
AB1-8 (antibody, V domains shown, Humanized; also called Humanized AB 1-8) VH: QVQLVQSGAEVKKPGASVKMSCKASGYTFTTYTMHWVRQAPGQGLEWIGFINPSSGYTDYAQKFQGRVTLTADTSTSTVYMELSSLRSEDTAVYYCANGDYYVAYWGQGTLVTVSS VL: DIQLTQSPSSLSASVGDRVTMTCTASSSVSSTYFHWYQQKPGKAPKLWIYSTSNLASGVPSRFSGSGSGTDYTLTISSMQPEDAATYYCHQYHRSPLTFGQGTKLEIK	Condition not met
AB9-3 (antibody, V domains shown, also called Humanized AB 9-3) VH: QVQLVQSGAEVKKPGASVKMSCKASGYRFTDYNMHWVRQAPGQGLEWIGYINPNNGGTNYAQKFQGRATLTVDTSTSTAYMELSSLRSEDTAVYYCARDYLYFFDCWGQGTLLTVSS VL: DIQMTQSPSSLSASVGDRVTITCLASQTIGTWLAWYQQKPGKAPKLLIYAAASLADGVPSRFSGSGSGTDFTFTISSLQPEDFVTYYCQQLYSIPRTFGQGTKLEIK	Condition met
AB1-6 (antibody, V domains shown, also called Humanized AB 1-6) VH: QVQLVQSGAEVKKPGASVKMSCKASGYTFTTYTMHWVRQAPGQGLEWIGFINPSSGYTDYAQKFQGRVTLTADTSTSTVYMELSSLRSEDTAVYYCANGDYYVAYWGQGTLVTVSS VL: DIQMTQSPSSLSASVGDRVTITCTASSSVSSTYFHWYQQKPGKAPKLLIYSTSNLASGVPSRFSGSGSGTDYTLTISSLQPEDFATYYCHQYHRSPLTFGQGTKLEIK	Condition not met

Dear reviewer, please state whether AB4-5 (antibody, V domains shown, also called Humanized AB 4-5) VH: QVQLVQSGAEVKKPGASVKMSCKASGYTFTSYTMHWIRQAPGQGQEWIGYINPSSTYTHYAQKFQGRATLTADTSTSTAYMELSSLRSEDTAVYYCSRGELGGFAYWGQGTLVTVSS VL: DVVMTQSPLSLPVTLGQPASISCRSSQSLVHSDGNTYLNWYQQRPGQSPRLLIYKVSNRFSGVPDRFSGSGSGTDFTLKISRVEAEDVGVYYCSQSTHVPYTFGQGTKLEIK has FACS fluorescence strictly beneath 2000.
Condition met

Is FACS fluorescence of AB11-chim (antibody, V domains shown, 'chim' is the pre-humanized form (parental variable regions); also called pre-humanized (chimeric) form of AB11) VH: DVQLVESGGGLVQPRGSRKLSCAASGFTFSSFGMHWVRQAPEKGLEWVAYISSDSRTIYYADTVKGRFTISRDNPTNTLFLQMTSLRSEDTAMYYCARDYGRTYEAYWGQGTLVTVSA VL: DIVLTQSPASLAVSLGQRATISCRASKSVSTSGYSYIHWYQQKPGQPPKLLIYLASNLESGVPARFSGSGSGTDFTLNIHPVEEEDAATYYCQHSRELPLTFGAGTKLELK strictly below 2000?
Condition not met
